A collection of compounds and their measured pIC50
experimentalDetails: Inhibition of Bovine liver beta-glucosidase
Type: tissue-based, Bos taurus
Note: pIC50 values are expressed as the negative base-10 logarithm of concentration in M.

- CCCCCCCC[C@H]1N[C@H](CO)[C@@H](O)[C@H](O)[C@H]1O: 3.71

As a next step, examine the compound that follows.
Entry O=C(O)C(F)(F)F.OC[C@H]1N[C@H](CCCCCCCCCc2ccc(O)cc2)[C@H](O)[C@@H](O)[C@@H]1O ; pIC50 = 4.60
